System: CYP3A4 (Homo sapiens)
Sequence (P08684 whole entry): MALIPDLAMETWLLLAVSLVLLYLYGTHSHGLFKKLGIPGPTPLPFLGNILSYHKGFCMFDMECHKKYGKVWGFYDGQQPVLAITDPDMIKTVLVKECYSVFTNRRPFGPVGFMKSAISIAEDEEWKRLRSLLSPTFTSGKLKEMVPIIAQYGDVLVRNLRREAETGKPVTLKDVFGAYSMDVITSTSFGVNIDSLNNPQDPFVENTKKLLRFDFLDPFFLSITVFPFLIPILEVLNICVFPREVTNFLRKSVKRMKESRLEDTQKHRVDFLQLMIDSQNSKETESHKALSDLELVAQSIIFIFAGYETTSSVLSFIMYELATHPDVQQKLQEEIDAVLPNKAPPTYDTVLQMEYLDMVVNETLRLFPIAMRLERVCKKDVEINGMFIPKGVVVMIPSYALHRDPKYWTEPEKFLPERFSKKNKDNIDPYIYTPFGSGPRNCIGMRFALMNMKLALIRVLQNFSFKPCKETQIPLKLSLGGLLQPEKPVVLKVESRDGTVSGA
Test: Direct CYP inhibition assay using pooled HLM
Measurement Setup: IC50 CYP3A4 (TST), direct inhibition, substrate TST, 95% confidence intervals in parentheses
Property Name: pIC50
Recall that pIC50 is obtained by taking minus log10 of the concentration measured in molar.

pIC50 reported for this compound COc1ccc2cc3[n+](cc2c1O)CCc1cc2c(cc1-3)OCO2 [BRB, berberrubine] : 4.35

----------
System: CYP3A4 (Homo sapiens)
Test: Direct CYP inhibition assay using pooled HLM
Measurement Setup: IC50 CYP3A4 (MDZ), direct inhibition, substrate MDZ, 95% confidence intervals in parentheses
Property Name: pIC50
In plain terms, pIC50 is the concentration in mol/L turned into minus its base-10 logarithm.

Reported pIC50 ( COc1ccc2cc3[n+](cc2c1O)CCc1cc2c(cc1-3)OCO2 [BRB, berberrubine] ) = 4.55
